Let's look at some sequences and their measured apparent KD of MS2 coat protein.
- Test system: MS2 coat protein
- assay.details: apparent KD of MS2 coat protein; higher = weaker reporter binding
- experimental.conditions: Eterna round: R107; input ligand: tryptophan 2.4 mM

primary.sequence: UAUAACAUGAGGAUCACCCAUGUAAGUGAUACCAGAUAAAUAAUAGUCCCUUGGCAGCAUAUUGGGAAAGUGUAUAAUAUAUAUU [Same State - Theophylline A (Freestyle 2)]
apparent KD of MS2 coat protein / nM: 48.1
--
primary.sequence: UCGGGAACAUGAGGAUCACCCAUGUCAGAAGGAGCGCUGAGAGAAGCAGGUAGGUCGCUGACGCAGGAGCUCUCUUCCUGUACGC [#22 Exclusion - Arginine A]
apparent KD of MS2 coat protein / nM: 15.9
--
primary.sequence: ACAUGAGGAUCACCCAUGUGUCCUCGAAAACGAGGACCGGUACGGCCGCCACUCGAAAUAAGCGACAAGCGAAAAGCUUGUCGCA [Mat - Exclusion - Trytophan A - D22]
apparent KD of MS2 coat protein / nM: 406
--
primary.sequence: CCGACGAUGACCAAAGGUCAGGAGUGCGCACGAGGACCGGUACGGCCGCCACUCGAGGAGUGGGACAUGAGGAUCACCCAUGUAA [X-TryptA-ms2@65-1]
apparent KD of MS2 coat protein / nM: 21.8
--
primary.sequence: GGGUGUGAUCCGGAUACCAGCGAACAUGAGGAUCACCCAUGUGACCUGAGAUCGGCUCUACGCCCUUGGCAGCCGCGAUCGCAGG [Same State Theophylline B GF12]
apparent KD of MS2 coat protein / nM: 13.1
